System: Staphylococcus aureus CIP 53154
Test: Percentage of bactericidal active principle, second method (5 min contact), S. aureus
Type: cell-based
Details: Simple: without interfering substances, destruction of 99.99%, * activity limited to the zone indicated
Procedure: In the two methods, a bacterial inoculum is brought into contact with different dilutions of the product for a determined period of time. […] The second method makes it possible to define a percentage of bactericidal or fungicidal active principle by means of a simplified and automated adaptation of Afnor standards NF T 72-150 and NF T 72-170. In this method, the bactericidal activity of the product is determined with and without interfering substances. […]
quantity.kind: Bactericidal activity, results in percentage of active principle, S. aureus

Task item: # input compound: CCCCCCCCCCCC(=O)NCCN(C)Cc1ccccc1 ; wanted: its Bactericidal activity, results in percentage of active principle, S. aureus
Reply: 0.05 percentage of active principle

---

Tested on: Escherichia coli CIP 54127
Assay: Minimum bactericidal concentration, first method (30 min contact), E. coli
Format: cell-based
Details: CIP54127, 0.5 h, contact time 30 minutes
Counter-ions that a name gives are not always drawn.
quantity.kind: MBC (µg/mL)
# value in µg/mL; strip the unit string

Reference set, count: 4
CCCCCCCCCCCC(=O)NCCCN(C)Cc1ccccc1 [SR 45583 A, hydrochloride]
10
CCCCCCCCCCCC(=O)NCCCN1CCC(Cc2ccccc2)CC1 [SR 45320 A]
10
CCCCCCCCCCCC(=O)NCCN(C)Cc1ccccc1 [SR 45525]
10
CCCCCCCCCCCC(=O)NCCN1CCC(Cc2ccccc2)CC1.Cl [SR 44944 A]
10

Task item: # input compound: CCCCCCCCCCCC(=O)NCCN(C)C [D1, reference compound] ; wanted: its MBC
Reply: 50

---

Item-by-item account of Bactericidal activity, results in percentage of active principle, M. smegmatis
Test system: Mycobacterium smegmatis CIP 7326
Test: Percentage of bactericidal active principle, second method (5 min contact), M. smegmatis
Format: cell-based
Settings: with proteins as interfering substances, destruction of 99.99%
Where a name gives a salt, the structure may show the parent alone.

Reference set, count: 4
CCCCCCCCCCCC(=O)NCCN1CCC(Cc2ccccc2)CC1.Cl
0.06 percentage of active principle
CCCCCCCCCCCC(=O)NCCCN(C)Cc1ccccc1 [SR 45583 A, hydrochloride]
0.05 percentage of active principle
CCCCCCCCCCCC(=O)NCCN(C)C [D1, reference compound]
> 0.5 percentage of active principle
CCCCCCCCCCCC(=O)NCCCN1CCC(Cc2ccccc2)CC1
0.05 percentage of active principle

Task item: # input molecule: CCCCCCCCCCCC(=O)NCCN(C)Cc1ccccc1 ; wanted: its Bactericidal activity, results in percentage of active principle, M. smegmatis
Reply: 0.1 percentage of active principle

---

Assay: Product solubility
Settings: water
Where a name gives a salt, the structure may show the parent alone.
Item-by-item account of solubility

CCCCCCCCCCCC(=O)NCCN(C)Cc1ccccc1 [SR 45525]
> 50 mg/mL
CCCCCCCCCCCC(=O)NCCCN(C)Cc1ccccc1 [SR 45583 A, hydrochloride]
> 50 mg/mL

Task item: # input compound: CCCCCCCCCCCC(=O)NCCN(C)C [D1, reference compound] ; wanted: its solubility
Reply: 18 mg/mL

---

Tested on: Candida albicans CIP 1180
Assay: Minimum fungicidal concentration, first method (30 min contact), C. albicans
Assay type: cell-based
Conditions: CIP1180, 0.5 h, contact time 30 minutes
Where a name gives a salt, the structure may show the parent alone.
quantity.kind: MFC
The reply must contain the numeric value and, after it, the unit.

Reference set, count: 4
CCCCCCCCCCCC(=O)NCCCN1CCC(Cc2ccccc2)CC1
10 µg/mL
CCCCCCCCCCCC(=O)NCCN(C)Cc1ccccc1
50 µg/mL
CCCCCCCCCCCC(=O)NCCN1CCC(Cc2ccccc2)CC1.Cl
10 µg/mL
CCCCCCCCCCCC(=O)NCCCN(C)Cc1ccccc1 [SR 45583 A, hydrochloride]
50 µg/mL

Task item: Provide value of MFC for this record tested with Candida albicans CIP 1180: CCCCCCCCCCCC(=O)NCCN(C)C [D1, reference compound]
Reply: 200 µg/mL

// provenance: patent US5068064A
